Values from ChEMBL document CHEMBL4219208

Test system: Hepatitis B virus
assayInfo: Antiviral activity against Hepatitis B virus ayw infected in human HepG2.2.15 cells
Type: functional, organism-based, Hepatitis B virus subtype ayw
assayEndpoint: EC50 (µM)
// return numeric value only (unit: µM, not printed)

{"substanceSmiles": "Nc1ncnc2c1ncn2[C@@H]1C[C@H]([C@H](O)CO)[C@@H](O)[C@H]1O", "EC50 / µM": 7.1}

-- ask For Nc1ncnc2c1ncn2[C@@H]1C[C@H]([C@@H](O)CO)[C@@H](O)[C@H]1O , what is its reported EC50?
-- reply 7.4
